Reported EC50 in PBMC Assay 2 (precomplexed IL-18BP), IFNγ values for a set of binders
Target: T1, human IL-18BP (interleukin-18 binding protein, isoform A) (human, UniProt O95998 31-194)
T1 sequence: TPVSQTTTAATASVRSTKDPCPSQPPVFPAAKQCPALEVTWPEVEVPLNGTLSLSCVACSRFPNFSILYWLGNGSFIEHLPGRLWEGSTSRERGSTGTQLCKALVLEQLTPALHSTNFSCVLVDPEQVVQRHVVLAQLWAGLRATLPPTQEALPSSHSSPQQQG
Assay: cell-based or functional assay
Dear colleague, please return just the value in nM, with no unit written.

In the examples that follow, each entry is paired with its recorded EC50 in PBMC Assay 2 (precomplexed IL-18BP), IFNγ.
BINDER	VALUE_OBSERVED
SA325a (antibody, human IgG1, V domains shown, humanized; human IgG1 (suffix a), kappa) VH: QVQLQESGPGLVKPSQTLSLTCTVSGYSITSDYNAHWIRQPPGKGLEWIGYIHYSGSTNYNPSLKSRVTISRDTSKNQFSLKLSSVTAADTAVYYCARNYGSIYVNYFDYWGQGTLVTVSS VL: EIVLTQSPATLSLSPGERATLSCSASSSVSYMYWYQQKPGQAPRPLIYRTSNLASGIPARFSGSGSGTDFTLTISSLEPEDFAVYYCQEYHSYPTFGGGTKVEIK	5
SA311a (antibody, human IgG1, V domains shown, humanized; human IgG1 (suffix a), kappa) VH: QVQLQESGPGLVKPSQTLSLTCTVSGYSITSDYNAHWIRQPPGKGLEWIGYIHYSGQTMYNPSLKSRVTISRDTSKNQFSLKLSSVTAADTAVYYCARNYGSIYVNYFDYWGQGTLVTVSS VL: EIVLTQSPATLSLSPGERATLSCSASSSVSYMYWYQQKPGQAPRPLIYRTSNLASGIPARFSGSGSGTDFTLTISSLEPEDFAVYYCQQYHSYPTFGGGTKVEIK	1.24
SA309a (antibody, human IgG1, V domains shown, humanized; human IgG1 (suffix a), kappa) VH: QVQLQESGPGLVKPSQTLSLTCTVSGYSITSDYNAHWIRQPPGKGLEWIGYIHYSGQTNYNPSLKSRVTISRDTSKNQFSLKLSSVTAADTAVYYCARNYGSIYVNYFDYWGQGTLVTVSS VL: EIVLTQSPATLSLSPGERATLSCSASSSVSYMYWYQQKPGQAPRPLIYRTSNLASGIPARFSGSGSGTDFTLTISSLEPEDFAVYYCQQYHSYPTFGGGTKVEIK	0.62
SA320a (antibody, human IgG1, V domains shown, humanized; human IgG1 (suffix a), kappa) VH: QVQLQESGPGLVKPSQTLSLTCTVSGYSITQDYNAHWIRQPPGKGLEWIGYIHYSGQTYYNPSLKSRVTISRDTSKNQFSLKLSSVTAADTAVYYCARNFGSIYVNYFDYWGQGTLVTVSS VL: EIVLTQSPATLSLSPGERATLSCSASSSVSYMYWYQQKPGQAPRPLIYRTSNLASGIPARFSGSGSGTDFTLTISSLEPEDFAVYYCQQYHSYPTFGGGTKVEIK	0.25

Consider the record given below.
Please look up its EC50 in PBMC Assay 2 (precomplexed IL-18BP), IFNγ: SA307a (antibody, human IgG1, V domains shown, humanized; human IgG1 (suffix a), kappa) VH: QVQLQESGPGLVKPSQTLSLTCTVSGYSITQDYNAHWIRQPPGKGLEWIGYIHYSGSTNYNPSLKSRVTISRDTSKNQFSLKLSSVTAADTAVYYCARNYGSIYVNYFDYWGQGTLVTVSS VL: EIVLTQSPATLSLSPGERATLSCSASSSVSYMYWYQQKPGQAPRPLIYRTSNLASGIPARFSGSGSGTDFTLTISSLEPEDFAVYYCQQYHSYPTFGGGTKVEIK
1.47
